- target_of_assay: T1, DcR3 (UniProt O95407 30-300, limits assumed)
- T1 construct: the construct is not described; also called decoy receptor DcR3; TNFRSF6B
- T1 sequence (looked up): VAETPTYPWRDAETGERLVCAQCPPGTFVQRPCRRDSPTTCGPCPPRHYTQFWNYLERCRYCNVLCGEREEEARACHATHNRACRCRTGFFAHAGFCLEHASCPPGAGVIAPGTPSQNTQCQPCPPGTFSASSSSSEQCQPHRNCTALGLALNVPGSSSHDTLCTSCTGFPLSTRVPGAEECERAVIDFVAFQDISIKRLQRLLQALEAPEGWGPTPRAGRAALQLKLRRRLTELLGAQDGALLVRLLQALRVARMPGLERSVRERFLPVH
- method_description: ELISA, DcR3
Measured pEC50 by item
Quick note: pEC50 values are minus log10 of concentrations in mol/L.

Sample answers from the record:
[[record]]
binder = "TL1W101 (His-TEV-TL1A S176N) (ligand, also called TL1W101 (S176N)) HHHHHHENLYFQGLKGQEFAPSHQQVYAPLRADGDKPRAHLTVVRQTPTQHFKNQFPALHWEHELGLAFTKNRMNYTNKFLLIPESGDYFIYSQVTFRGMTSECSEIRQAGRPNKPDNITVVITKVTDSYPEPTQLLMGTKSVCEVGSNWFQPIYLGAMFSLQEGDKLMVNVSDISLVDYTKEDKTFFGAFLL"
observed_measurement = 7.69

[[record]]
binder = "TL1W102 (His-TEV-TL1A S176K) (ligand, also called TL1W102 (S176K)) HHHHHHENLYFQGLKGQEFAPSHQQVYAPLRADGDKPRAHLTVVRQTPTQHFKNQFPALHWEHELGLAFTKNRMNYTNKFLLIPESGDYFIYSQVTFRGMTSECSEIRQAGRPNKPDKITVVITKVTDSYPEPTQLLMGTKSVCEVGSNWFQPIYLGAMFSLQEGDKLMVNVSDISLVDYTKEDKTFFGAFLL"
observed_measurement = 7.53


Now for a further binder.
Prompt line: Request the reported pEC50 associated with TL1W135 (His-TEV-TL1A K240A) (ligand, also called TL1W135 (K240A)) HHHHHHENLYFQGLKGQEFAPSHQQVYAPLRADGDKPRAHLTVVRQTPTQHFKNQFPALHWEHELGLAFTKNRMNYTNKFLLIPESGDYFIYSQVTFRGMTSECSEIRQAGRPNKPDSITVVITKVTDSYPEPTQLLMGTKSVCEVGSNWFQPIYLGAMFSLQEGDKLMVNVSDISLVDYTAEDKTFFGAFLL
Response line: 8.07
